# Assay comment: Encapsulation efficiency, RiboGreen RNA assay (Method A)
# Format: physicochemical
# Test conditions: LNP formulated by Method A
Property measured: EE (%)
Answers are plain numbers, in %.

Consider the reported EE (%) for these compounds:
Ask: Which measured EE (%) value corresponds to CCCCCCCCOC(CCCCCN(CCCCO)CCCCCCOC(=O)C(CCCCCCCC)SCCCCC)O[Si](C)(C)O[Si](C)(C)OCCCCCCCC (stereo not shown) ?
Reply: 97

Ask: Another: CCCCCCCCC(CCCCCC)C(=O)OCCCCCCN(CCCCO)CCCCCCOC(=O)C(CCCCCC)CCCCCCCC (stereo not shown) [ALC-0315, reference compound]
Reply: 94

Ask: Another: CCCCCCCC[Si](C)(C)OC(CCCCCCC)OCCCCCCN(CCCCO)CCCCCCOC(CCCCCCC)O[Si](C)(C)CCCCCCCC (stereo not shown)
Reply: 96

Ask: Another: CCCCCCCCOC(CCCCCN(CCCCO)CCC[C@@H](C)C1CCC2C3CCC4C[C@H](OC)CC[C@]4(C)C3CC[C@@]21C)O[Si](C)(C)O[Si](C)(C)OCCCCCCCC (stereo partly shown)
Reply: 98

Ask: Another: CCCCCCCCOC(CCCCCCC)O[Si](C)(C)CCCCCCN(CCCCO)CCCCCCOC(=O)C(CCCCCCCC)SCCCCC (stereo not shown)
Reply: 92

Ask: Another: CCCCCCCCOC(CCCCCCC)O[Si](C)(C)CCCCCCN(CCCCO)CCC[C@@H](C)C1CCC2C3CCC4C[C@H](OC)CC[C@]4(C)C3CC[C@@]21C (stereo partly shown)
Reply: 97

Ask: Another: CCCCCCCCOC(CCCCCN(CCCCO)CCCCCCOC(=O)C(CCCCCCCC)SCCCCC)O[Si](C)(C)OCCCCCCCC (stereo not shown)
Reply: 94

Ask: Another: CCCCCCCCCCSC(CCCC)C(=O)OCCCCCCN(CCCCO)CCCCCCOC(CCCCCCC)O[Si](C)(C)O[Si](C)(C)OCCCCCCCC (stereo not shown)
Reply: 97

Report EE (%) for every entry below.
1. CCCCCCCCOC(CCCCCCC)O[Si](C)(C)CCCCCCN(CCCCO)CCCCCC[Si](C)(C)OC(CCCCCCC)OCCCCCCCC (stereo not shown)
2. CCCCCCCCSC(CCCCCCC)O[Si](C)(C)OCCCCCCN(CCCCO)CCCCCCOC(=O)C(CCCCCC)CCCCCCCC (stereo not shown)
3. CCCCCCCCCOC(CCCCCCC)O[Si](C)(C)OCCCCCCN(CCCCO)CCCCCCOC(=O)C(CCCCCC)CCCCCCCC (stereo not shown)

Reply:
1: 94; 2: 96; 3: 95

Report EE (%) for every entry below.
1. CCCCCCCCOC(CCCCCN(CCCCO)CCC[C@@H](C)C1CCC2C3CCC4C[C@H](OC)CC[C@]4(C)C3CC[C@@]21C)O[Si](C)(C)OCCCCCCCC (stereo partly shown)
2. CCCCCCCCOC(CCCCCC)O[Si](C)(C)OCCCCCCN(CCCCO)CCCCCCOC(=O)C(CCCCCC)CCCCCCCC (stereo not shown)

Reply:
91
96

Hey, just so you know, these numbers are from patent US20260008793A1.
